Values were extracted from patent EP0880968A1.

# TEST_METHOD_NOTES: Solubilisation studies (visual appearance and RP-HPLC solubility after equilibration overnight at 25°C)
# Type: physicochemical
# CONDITION: phosphate buffered saline, aqueous buffer
# Method: RP-HPLC gradient elution, C-18 (e.g. Vydac 218 TP54, 250 x 4.6 mm) column. UV detection at 215 nm, injection volume 15 µl mobile phase A: pH 4.5 phosphate buffer (0.1M), mobile phase B: acetonitrile, flow rate = 1.0 ml/min, runtime = 23 min. […] Following the visual analysis, a number of solutions were selected for further quantitative determination of the solubility by filtration (0.45 µm filters) and appropriate dilution using the RP-HPLC method described above.
Square brackets hold non-standard residues; d marks the D form. Peptide text beside a SMILES is read from it. * marks the point of attachment. dPhe(4-Cl) = N[C@H](Cc1ccc(Cl)cc1)C(=O)O; d2Nal = N[C@H](Cc1ccc2ccccc2c1)C(=O)O; Lys(iPr) = CC(C)NCCCC[C@H](N)C(=O)O; d3Pal = N[C@H](Cc1cccnc1)C(=O)O; Nicotinoyl = O=C(c1cccnc1)*

COMPOUND: CC(=O)N[C@H](Cc1ccc2ccccc2c1)C(=O)N[C@H](Cc1ccc(Cl)cc1)C(=O)N[C@H](Cc1cccnc1)C(=O)N[C@@H](CO)C(=O)N[C@@H](CCCCNC(=O)c1cccnc1)C(=O)N[C@H](CCCCNC(=O)c1cccnc1)C(=O)N[C@@H](CC(C)C)C(=O)N[C@@H](CCCCNC(C)C)C(=O)N1CCC[C@H]1C(=O)N[C@H](C)C(N)=O [antide] (Ac-[d2Nal][dPhe(4-Cl)][d3Pal]SK(Nicotinoyl)[dK](Nicotinoyl)L[Lys(iPr)]P[dA]-NH2)
UNIT_TEXT: µg/mL
solubility thermodynamic: 16

====

# TEST_METHOD_NOTES: Solubilisation studies (visual appearance and RP-HPLC solubility after equilibration overnight at 25°C)
# Type: physicochemical
# CONDITION: WFI (water for injection), water; WFI; nominal amount added 1 mg/ml; pH 5.00; read-out: Solubility
Square brackets hold non-standard residues; d marks the D form. Peptide text beside a SMILES is read from it. * marks the point of attachment. dPhe(4-Cl) = N[C@H](Cc1ccc(Cl)cc1)C(=O)O; d2Nal = N[C@H](Cc1ccc2ccccc2c1)C(=O)O; Lys(iPr) = CC(C)NCCCC[C@H](N)C(=O)O; d3Pal = N[C@H](Cc1cccnc1)C(=O)O; Nicotinoyl = O=C(c1cccnc1)*
PROPERTY_NAME: Solubility

COMPOUND: CC(=O)N[C@H](Cc1ccc2ccccc2c1)C(=O)N[C@H](Cc1ccc(Cl)cc1)C(=O)N[C@H](Cc1cccnc1)C(=O)N[C@@H](CO)C(=O)N[C@@H](CCCCNC(=O)c1cccnc1)C(=O)N[C@H](CCCCNC(=O)c1cccnc1)C(=O)N[C@@H](CC(C)C)C(=O)N[C@@H](CCCCNC(C)C)C(=O)N1CCC[C@H]1C(=O)N[C@H](C)C(N)=O [antide] (Ac-[d2Nal][dPhe(4-Cl)][d3Pal]SK(Nicotinoyl)[dK](Nicotinoyl)L[Lys(iPr)]P[dA]-NH2)
ENDPOINT_VALUE: ≥ 1000 µg/mL

====

# TEST_METHOD_NOTES: Solubilisation studies (visual appearance and RP-HPLC solubility after equilibration overnight at 25°C)
# Type: physicochemical
# CONDITION: WFI (water for injection), pH 4.4, water, WFI; nominal amount added 10 mg/ml; pH 4.40
Square brackets hold non-standard residues; d marks the D form. Peptide text beside a SMILES is read from it. * marks the point of attachment. dPhe(4-Cl) = N[C@H](Cc1ccc(Cl)cc1)C(=O)O; d2Nal = N[C@H](Cc1ccc2ccccc2c1)C(=O)O; Lys(iPr) = CC(C)NCCCC[C@H](N)C(=O)O; d3Pal = N[C@H](Cc1cccnc1)C(=O)O; Nicotinoyl = O=C(c1cccnc1)*

COMPOUND: CC(=O)N[C@H](Cc1ccc2ccccc2c1)C(=O)N[C@H](Cc1ccc(Cl)cc1)C(=O)N[C@H](Cc1cccnc1)C(=O)N[C@@H](CO)C(=O)N[C@@H](CCCCNC(=O)c1cccnc1)C(=O)N[C@H](CCCCNC(=O)c1cccnc1)C(=O)N[C@@H](CC(C)C)C(=O)N[C@@H](CCCCNC(C)C)C(=O)N1CCC[C@H]1C(=O)N[C@H](C)C(N)=O [antide] (Ac-[d2Nal][dPhe(4-Cl)][d3Pal]SK(Nicotinoyl)[dK](Nicotinoyl)L[Lys(iPr)]P[dA]-NH2)
solubility thermodynamic: 8130 µg/mL

====

# TEST_METHOD_NOTES: Solubilisation studies (visual appearance and RP-HPLC solubility after equilibration overnight at 25°C)
# Format: physicochemical
# CONDITION: saline, pH 5.04, saline or isotonic; nominal amount added 1 mg/ml; natural pH 5.04
Square brackets hold non-standard residues; d marks the D form. Peptide text beside a SMILES is read from it. * marks the point of attachment. dPhe(4-Cl) = N[C@H](Cc1ccc(Cl)cc1)C(=O)O; d2Nal = N[C@H](Cc1ccc2ccccc2c1)C(=O)O; Lys(iPr) = CC(C)NCCCC[C@H](N)C(=O)O; d3Pal = N[C@H](Cc1cccnc1)C(=O)O; Nicotinoyl = O=C(c1cccnc1)*

COMPOUND: CC(=O)N[C@H](Cc1ccc2ccccc2c1)C(=O)N[C@H](Cc1ccc(Cl)cc1)C(=O)N[C@H](Cc1cccnc1)C(=O)N[C@@H](CO)C(=O)N[C@@H](CCCCNC(=O)c1cccnc1)C(=O)N[C@H](CCCCNC(=O)c1cccnc1)C(=O)N[C@@H](CC(C)C)C(=O)N[C@@H](CCCCNC(C)C)C(=O)N1CCC[C@H]1C(=O)N[C@H](C)C(N)=O [antide] (Ac-[d2Nal][dPhe(4-Cl)][d3Pal]SK(Nicotinoyl)[dK](Nicotinoyl)L[Lys(iPr)]P[dA]-NH2)
UNIT_TEXT: µg/mL
solubility thermodynamic: 25
